Sourced from PubChem BioAssay

target.or.system: Focal adhesion kinase 1 (Homo sapiens) (UniProt Q05397)
Sequence (Q05397 whole entry, looked up): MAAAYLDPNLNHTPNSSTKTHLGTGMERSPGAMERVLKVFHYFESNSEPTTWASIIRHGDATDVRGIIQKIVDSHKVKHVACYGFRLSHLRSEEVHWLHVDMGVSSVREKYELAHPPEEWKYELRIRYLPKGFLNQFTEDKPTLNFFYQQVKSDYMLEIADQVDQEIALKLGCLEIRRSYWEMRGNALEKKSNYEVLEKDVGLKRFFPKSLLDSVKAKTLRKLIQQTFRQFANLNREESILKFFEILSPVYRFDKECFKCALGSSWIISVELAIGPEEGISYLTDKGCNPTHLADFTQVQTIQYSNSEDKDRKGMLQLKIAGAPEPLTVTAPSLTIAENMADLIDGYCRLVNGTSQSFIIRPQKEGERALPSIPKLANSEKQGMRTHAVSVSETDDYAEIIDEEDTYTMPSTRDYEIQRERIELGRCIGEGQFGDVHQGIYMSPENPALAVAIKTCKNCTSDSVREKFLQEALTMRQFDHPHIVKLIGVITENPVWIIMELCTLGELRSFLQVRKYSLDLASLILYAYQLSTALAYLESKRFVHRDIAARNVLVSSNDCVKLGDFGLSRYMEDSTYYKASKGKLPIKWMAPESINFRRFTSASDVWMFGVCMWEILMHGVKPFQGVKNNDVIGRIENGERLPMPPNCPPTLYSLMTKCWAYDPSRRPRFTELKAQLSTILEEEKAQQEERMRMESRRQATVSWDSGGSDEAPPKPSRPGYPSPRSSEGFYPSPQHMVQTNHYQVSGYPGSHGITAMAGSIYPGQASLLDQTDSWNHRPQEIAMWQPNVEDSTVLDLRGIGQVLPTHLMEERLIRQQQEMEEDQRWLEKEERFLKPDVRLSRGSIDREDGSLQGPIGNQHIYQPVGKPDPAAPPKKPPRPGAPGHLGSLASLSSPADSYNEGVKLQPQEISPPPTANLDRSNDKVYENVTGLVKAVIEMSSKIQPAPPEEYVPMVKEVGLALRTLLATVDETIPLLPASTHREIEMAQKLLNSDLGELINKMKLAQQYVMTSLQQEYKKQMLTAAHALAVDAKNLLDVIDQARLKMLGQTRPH
measurement.protocol: small-molecule microarray binders of FAK, primary screen, biochemical, 635/667 nm fluorescence, BSA, DTT (AID 1130);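 note: composite of spot emission at 667 nm and signal to noise over triplicate slides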
experimental.conditions: PTK2 binding, 635 nm fluorescence, higher = more signal
Listed here: items and their measured composite z-score.
metric: composite z-score

INSERT INTO assay_data (structure_smiles_string, numeric_readout) VALUES
  ('C=C(CCCC)C(=O)CC[C@H](OC(C)=O)c1ccccc1OCCO', -0.176),
  ('COC(=O)C(CC#Cc1ccc2c(c1)[C@]1(C(=O)N2)[C@H](c2ccc(O)cc2)N2[C@H](c3ccccc3)[C@H](c3ccccc3)OC(=O)[C@H]2[C@@H]1C(=O)N1CCc2cc(OC)c(OC)cc2C1)C(=O)OC', -0.0453),
  ('CN(C)CCCNC(=O)[C@@H]1c2ccccc2C(=O)N(C2Cc3ccccc3C2)[C@H]1c1ccc(CO)cc1', 0.726),
  ('C=CC[C@]1(C(=O)NCc2ccccc2)COC(c2ccc(OCCCO)cc2)=N1', -0.19);
